Target: T1, human neuropeptide Y Y4 receptor (wild-type, CHO-hY4R-Gqi5-mtAEQ cells) (human, UniProt P50391 1-375)
T1 construct: The cells also express Gqi5 and mitochondrially targeted aequorin; also called wild-type Y4R
Test: radioligand binding; competition with [^3H]UR-KK200 (1.0 nM) at intact CHO-hY4R-Gqi5-mtAEQ cells, 23 ± 2 °C, buffer I (sodium-free)
Conditions: one partner purified
Quantity: Ki (nM)
Numbers only here, please. The scale is nM.

In: Consider the binder shown here: RYRLRY (N^α-succinyl; N^ω-[hex-5-ynylaminocarbonyl]-Arg at position 1; N^ω-[(aminobutyl)aminocarbonyl]-Arg at position 3; cyclized via the succinyl carboxylic group and the primary amino group of the carbamoylated arginine in position 3; C-terminal amide, printed in three-letter code for the linear precursor 10: N^α-succinyl-N^ω[hex-5-ynylaminocarbonyl]-Arg-Tyr-N^ω-[(aminobutyl)aminocarbonyl]Arg-Leu-Arg-Tyr-amide; 11 is its cyclized form; source: synthetic peptide (SPPS of linear peptide 10, cyclization in solution, preparative HPLC)) [cyclic peptide 11 (alkyne-functionalized precursor peptide)] What is its recorded Ki?
Out: 0.42
